- measured-on: T1, hFLT3-His fusion protein (human, UniProt P36888 27-541, limits assumed)
- T1 construct: Soluble recombinant antigen used for immunisation, ELISA, SPR and BLI binning; also called recombinant hFLT3 protein; not shown: His tag
- T1 sequence (looked up): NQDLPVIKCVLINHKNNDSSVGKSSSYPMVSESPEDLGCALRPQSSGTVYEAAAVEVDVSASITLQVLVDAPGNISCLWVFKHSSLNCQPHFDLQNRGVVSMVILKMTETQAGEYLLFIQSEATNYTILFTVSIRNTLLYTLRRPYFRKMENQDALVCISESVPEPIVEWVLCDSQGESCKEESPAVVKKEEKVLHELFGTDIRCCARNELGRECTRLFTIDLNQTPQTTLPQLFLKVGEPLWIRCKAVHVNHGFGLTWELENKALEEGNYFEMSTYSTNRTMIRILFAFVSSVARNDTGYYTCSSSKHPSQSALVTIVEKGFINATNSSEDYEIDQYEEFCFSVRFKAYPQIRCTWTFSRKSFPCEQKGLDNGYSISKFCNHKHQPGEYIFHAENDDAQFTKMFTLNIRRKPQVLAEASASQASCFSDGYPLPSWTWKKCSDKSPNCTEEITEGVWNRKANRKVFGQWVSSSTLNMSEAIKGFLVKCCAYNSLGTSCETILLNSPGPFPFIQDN
- protocol: SPR, purified murine subclone mAb, hFLT3-His
Recorded measurements of pKd, one per entry
Scale for pKd: -log10 of concentration given in mol/L; no unit attached.

4A4.A3 (antibody, V domains shown, Purified murine mAb from a hybridoma subclone) VH: QVTLKESGPGILQPSQTLSLTCSFSGFSLTTYGMGVGWIRQPSGKGLEWLANIWFNDNKYYNSTLKSRLTISKDTSNNQVFLKISSVDTTDTATYYCAQITTVVGTFDYWGQGSPLTVSP VL: RIVMTQSPTTMAASPGEKITITCSASSSISSIYLHWYQQKPGFSPKLLIFRTSDLASGVPPRFGGSGSGTSYSLTIGTMEAEDVATYYCQQGSSFPRTFGGGTKLEIK ... 8.14

Sample 14A5.E8 (antibody, V domains shown, Purified murine mAb from a hybridoma subclone) VH: EVQLQESGAELVQPGASVRLSCKASGYTFTSYWINWVKQRPGQGLEWIGNIYPGSSIINYNENFKNRATLTVDTSSSTAYMQLSSLTSDDSAVYYCARRVVYLYFDYWGQGTTLTVSS VL: QIVLTQSPAIMSASPGEKVTMTCSASSSVSYMHWYQQKSGTSPKRWIYDTSKLASGVPARFSGSGSGTSYSLTISSMEAEDAATYYCQQWTSKSPTFGGGTKLEIK ; pKd observed: 7.82

Sample 1A2.A3 (antibody, V domains shown, Purified murine mAb from a hybridoma subclone) VH: EVQLQESGPELVKPGASVKISCKASGYSFTGYYIHWVKQSPEESLEWIGEIYPNTGITTYNQKFTAKATLTVDKSSNTAYMQLKSLTSEDSAVYYCTRWGDYYGRDYWGQGTSVTVSS VL: DIVLTQSPASLAVSLGQRATISCRASETVDTHGNSFMHWYQQKPGQPPKLLIYRASNLESGIPARFSGSGSRTDFTLTINPVEADDVATYYCQQSNEDPRTFGGGTKLEIK ; pKd observed: 8.07
